# Method Description: encapsulation rate of lipid nanoparticles (RiboGreen)
# Assay type: physicochemical
# Assay Context: Fluc mRNA-loaded lipid nanoparticles, TOT/DSPC/chol/PEG-DMG=65/15/20/1.5 (mol%)
Measurement Type: Encapsulation Rate (%)

CCCCCCCC/C=C\CCCCCCCC(=O)OCC(COC(=O)CCCCCCC/C=C\CCCCCCCC)(COC(=O)CCCCCCC/C=C\CCCCCCCC)NC(=O)CNC; 92.4
CCCCCCCC/C=C\CCCCCCCC(=O)OCC(COC(=O)CCCCCCC/C=C\CCCCCCCC)(COC(=O)CCCCCCC/C=C\CCCCCCCC)NC(=O)CN; 95.4
CCCCCCCC/C=C\CCCCCCCC(=O)OCC(COC(=O)CCCCCCC/C=C\CCCCCCCC)(COC(=O)CCCCCCC/C=C\CCCCCCCC)NC(=O)CCN(C)CC; 87.6

---

# Method Description: average particle size and polydispersity index by dynamic light scattering
# Type: physicochemical
# Assay Context: Fluc mRNA-loaded lipid nanoparticles, TOT/DSPC/chol/PEG-DMG=65/15/20/1.5 (mol%)
Measurement Type: ζ-Average Particle Size (nm)

CCCCCCCC/C=C\CCCCCCCC(=O)OCC(COC(=O)CCCCCCC/C=C\CCCCCCCC)(COC(=O)CCCCCCC/C=C\CCCCCCCC)NC(=O)C1CCN(C(C)C)CC1 [TOT-19]; 142.6
CCCCCCCC/C=C\CCCCCCCC(=O)OCC(COC(=O)CCCCCCC/C=C\CCCCCCCC)(COC(=O)CCCCCCC/C=C\CCCCCCCC)NC(=O)CCN(CC)CC [TOT-4]; 134.3
CCCCCCCC/C=C\CCCCCCCC(=O)OCC(COC(=O)CCCCCCC/C=C\CCCCCCCC)(COC(=O)CCCCCCC/C=C\CCCCCCCC)NC(=O)C1CCN(C)C1 (stereo not drawn) [TOT-20]; 201.8
CCCCCCCC/C=C\CCCCCCCC(=O)OCC(COC(=O)CCCCCCC/C=C\CCCCCCCC)(COC(=O)CCCCCCC/C=C\CCCCCCCC)NC(=O)CN [TOT-6]; 102.5

A = CCCCCCCC/C=C\CCCCCCCC(=O)OCC(COC(=O)CCCCCCC/C=C\CCCCCCCC)(COC(=O)CCCCCCC/C=C\CCCCCCCC)NC(=O)CNC [TOT-7]
B = CCCCCCCC/C=C\CCCCCCCC(=O)OCC(COC(=O)CCCCCCC/C=C\CCCCCCCC)(COC(=O)CCCCCCC/C=C\CCCCCCCC)NC(=O)[C@@H](N)CO [TOT-8]
Query string: Which record would sort first by descending ζ-Average Particle Size, A or B ? Lab log: write the label of the selected item as the result.
Result string: A
(A: 128.0 nm, B: 87.1 nm)

---

# Method Description: average particle size and polydispersity index by dynamic light scattering
# Type: physicochemical
# Assay Context: Fluc mRNA-loaded lipid nanoparticles, TOT/DSPC/chol/PEG-DMG=65/15/20/1.5 (mol%)
Measurement Type: PdI

Worked set:
CCCCCCCC/C=C\CCCCCCCC(=O)OCC(COC(=O)CCCCCCC/C=C\CCCCCCCC)(COC(=O)CCCCCCC/C=C\CCCCCCCC)NC(=O)CCN(C)CC; 0.180
CCCCCCCC/C=C\CCCCCCCC(=O)OCC(COC(=O)CCCCCCC/C=C\CCCCCCCC)(COC(=O)CCCCCCC/C=C\CCCCCCCC)NC(=O)CCCN(C)C; 0.347
CCCCCCCC/C=C\CCCCCCCC(=O)OCC(COC(=O)CCCCCCC/C=C\CCCCCCCC)(COC(=O)CCCCCCC/C=C\CCCCCCCC)NC(=O)CCN1CCCCC1; 0.161

P = CCCCCCCC/C=C\CCCCCCCC(=O)OCC(COC(=O)CCCCCCC/C=C\CCCCCCCC)(COC(=O)CCCCCCC/C=C\CCCCCCCC)NC(=O)CCN(CC)CC
Q = CCCCCCCC/C=C\CCCCCCCC(=O)OCC(COC(=O)CCCCCCC/C=C\CCCCCCCC)(COC(=O)CCCCCCC/C=C\CCCCCCCC)NC(=O)CNC
Query string: Which value of PdI is greater, the one for P or the one for Q ? Write down the label attached to your selection.
Result string: Q

---

# Method Description: encapsulation rate of lipid nanoparticles (RiboGreen)
# Type: physicochemical
# Assay Context: Fluc mRNA-loaded lipid nanoparticles, TOT/DSPC/chol/PEG-DMG=65/15/20/1.5 (mol%)
Measurement Type: Encapsulation Rate (%)

CCCCCCCC/C=C\CCCCCCCC(=O)OCC(COC(=O)CCCCCCC/C=C\CCCCCCCC)(COC(=O)CCCCCCC/C=C\CCCCCCCC)NC(=O)CCN(C)C; 85.9
CCCCCCCC/C=C\CCCCCCCC(=O)OCC(COC(=O)CCCCCCC/C=C\CCCCCCCC)(COC(=O)CCCCCCC/C=C\CCCCCCCC)NC(=O)CCCN(C)C; 92.3
CCCCCCCC/C=C\CCCCCCCC(=O)OCC(COC(=O)CCCCCCC/C=C\CCCCCCCC)(COC(=O)CCCCCCC/C=C\CCCCCCCC)NC(=O)C1CCN(C(C)C)CC1; 92.2

---

# Method Description: encapsulation rate of lipid nanoparticles (RiboGreen)
# Type: physicochemical
# Assay Context: Fluc mRNA-loaded lipid nanoparticles, TOT/DSPC/chol/PEG-DMG=65/15/20/1.5 (mol%)
Measurement Type: Encapsulation Rate (%)

CCCCCCCC/C=C\CCCCCCCC(=O)OCC(COC(=O)CCCCCCC/C=C\CCCCCCCC)(COC(=O)CCCCCCC/C=C\CCCCCCCC)NC(=O)CCN(CC)CC; 83.5
CCCCCCCC/C=C\CCCCCCCC(=O)OCC(COC(=O)CCCCCCC/C=C\CCCCCCCC)(COC(=O)CCCCCCC/C=C\CCCCCCCC)NC(=O)C1CCN(CC)CC1; 92.2
CCCCCCCC/C=C\CCCCCCCC(=O)OCC(COC(=O)CCCCCCC/C=C\CCCCCCCC)(COC(=O)CCCCCCC/C=C\CCCCCCCC)NC(=O)C1CCN(C)C1 (stereo not drawn); 94.7
CCCCCCCC/C=C\CCCCCCCC(=O)OCC(COC(=O)CCCCCCC/C=C\CCCCCCCC)(COC(=O)CCCCCCC/C=C\CCCCCCCC)NC(=O)[C@@H](N)CO; 85.7
CCCCCCCC/C=C\CCCCCCCC(=O)OCC(COC(=O)CCCCCCC/C=C\CCCCCCCC)(COC(=O)CCCCCCC/C=C\CCCCCCCC)NC(=O)CCN1CCCCC1; 88.6
CCCCCCCC/C=C\CCCCCCCC(=O)OCC(COC(=O)CCCCCCC/C=C\CCCCCCCC)(COC(=O)CCCCCCC/C=C\CCCCCCCC)NC(=O)C1CCN(C)CC1; 92.3

---

# Method Description: average particle size and polydispersity index by dynamic light scattering
# Type: physicochemical
# Assay Context: Fluc mRNA-loaded lipid nanoparticles, TOT/DSPC/chol/PEG-DMG=65/15/20/1.5 (mol%)
Measurement Type: ζ-Average Particle Size (nm)

CCCCCCCC/C=C\CCCCCCCC(=O)OCC(COC(=O)CCCCCCC/C=C\CCCCCCCC)(COC(=O)CCCCCCC/C=C\CCCCCCCC)NC(=O)CCN(C)C; 138.0
CCCCCCCC/C=C\CCCCCCCC(=O)OCC(COC(=O)CCCCCCC/C=C\CCCCCCCC)(COC(=O)CCCCCCC/C=C\CCCCCCCC)NC(=O)CCN1CCCCC1; 102.1
CCCCCCCC/C=C\CCCCCCCC(=O)OCC(COC(=O)CCCCCCC/C=C\CCCCCCCC)(COC(=O)CCCCCCC/C=C\CCCCCCCC)NC(=O)CCCN(C)C; 166.2
CCCCCCCC/C=C\CCCCCCCC(=O)OCC(COC(=O)CCCCCCC/C=C\CCCCCCCC)(COC(=O)CCCCCCC/C=C\CCCCCCCC)NC(=O)C1CCN(C)CC1; 167.2
CCCCCCCC/C=C\CCCCCCCC(=O)OCC(COC(=O)CCCCCCC/C=C\CCCCCCCC)(COC(=O)CCCCCCC/C=C\CCCCCCCC)NC(=O)CCN(C)CC; 99.2
CCCCCCCC/C=C\CCCCCCCC(=O)OCC(COC(=O)CCCCCCC/C=C\CCCCCCCC)(COC(=O)CCCCCCC/C=C\CCCCCCCC)NC(=O)C1CCN(CC)CC1; 130.0

---

# Method Description: average particle size and polydispersity index by dynamic light scattering
# Assay type: physicochemical
# Assay Context: Fluc mRNA-loaded lipid nanoparticles, TOT/DSPC/chol/PEG-DMG=65/15/20/1.5 (mol%)
Measurement Type: PdI

Solved cases (5 shown):
CCCCCCCC/C=C\CCCCCCCC(=O)OCC(COC(=O)CCCCCCC/C=C\CCCCCCCC)(COC(=O)CCCCCCC/C=C\CCCCCCCC)NC(=O)CCN(C)C; 0.324
CCCCCCCC/C=C\CCCCCCCC(=O)OCC(COC(=O)CCCCCCC/C=C\CCCCCCCC)(COC(=O)CCCCCCC/C=C\CCCCCCCC)NC(=O)C1CCN(C)C1 (stereo not shown); 0.263
CCCCCCCC/C=C\CCCCCCCC(=O)OCC(COC(=O)CCCCCCC/C=C\CCCCCCCC)(COC(=O)CCCCCCC/C=C\CCCCCCCC)NC(=O)C1CCN(CC)CC1; 0.319
CCCCCCCC/C=C\CCCCCCCC(=O)OCC(COC(=O)CCCCCCC/C=C\CCCCCCCC)(COC(=O)CCCCCCC/C=C\CCCCCCCC)NC(=O)C1CCN(C(C)C)CC1; 0.261
CCCCCCCC/C=C\CCCCCCCC(=O)OCC(COC(=O)CCCCCCC/C=C\CCCCCCCC)(COC(=O)CCCCCCC/C=C\CCCCCCCC)NC(=O)CN; 0.190

1 = CCCCCCCC/C=C\CCCCCCCC(=O)OCC(COC(=O)CCCCCCC/C=C\CCCCCCCC)(COC(=O)CCCCCCC/C=C\CCCCCCCC)NC(=O)[C@@H](N)CO
2 = CCCCCCCC/C=C\CCCCCCCC(=O)OCC(COC(=O)CCCCCCC/C=C\CCCCCCCC)(COC(=O)CCCCCCC/C=C\CCCCCCCC)NC(=O)C1CCN(C)CC1
Query string: Returns: the label, 1 or 2 , whose recorded PdI is the lower number. Answer with the label corresponding to your selection.
Result string: 1
(1: 0.213, 2: 0.344)
